System: A549 cells
Assay: WST-assay
Type: cell-based, human
Details: 24 h, FIG. 17C
MEASUREMENT_LABEL: CC50

q: Data request, read-out CC50, for O=C(O)c1ccc(F)c(F)c1Nc1ccc(I)cc1Cl
a: > 1.58 mM
